System: 786-0 complex spheroids with HUVEC/MSC, growth % test/control
assay_remarks: Anticancer human tumor 786-0 cell line growth inhibition [AhR];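 further: compound exposure lasted seven days before the read-out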
cond: second compound 10 µM; first compound 0.000949 µM; active compounds read low
// boundary case: viability, T/C equal to 90% maps to F; strictly smaller maps to T

**Q:** Confirm or reject: viability, T/C of CCc1c2c(nc3ccc(O)cc13)-c1cc3c(c(=O)n1C2)COC(=O)[C@]3(O)CC + CC(CO)NC(=O)c1cc(-c2ccc(Cl)cc2)nn(-c2cnn(C)c2)c1=O lies strictly below 90%
**A:** T

**Q:** Lab note: viability, T/C threshold 90%. Does this compound come in strictly under it? CC(C)CC(NC(=O)C(Cc1ccccc1)NC(=O)c1cnccn1)B(O)O (stereo unspecified) + Cc1cncc(-c2nc(NCCc3c[nH]c4ccccc34)c3ncn(C(C)C)c3n2)c1
**A:** T

---

Test system: 786-0 complex spheroids with HUVEC/MSC, growth % test/control
assay_remarks: Anticancer human tumor 786-0 cell line growth inhibition [AhR];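 further: compound exposure lasted seven days before the read-out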
cond: second compound 3.16 µM; first compound 3.16 µM; active compounds read low
Can you tell me viability, T/C for the items I'm about to list?
Answers are plain numbers, in %.

Solved cases (5 shown):
O=C(C=Cc1cccc(S(=O)(=O)Nc2ccccc2)c1)NO + Cc1cncc(-c2nc(NCCc3c[nH]c4ccccc34)c3ncn(C(C)C)c3n2)c1 : 45
CC1COCCN1c1cc(C2(S(C)(=N)=O)CC2)nc(-c2ccnc3[nH]ccc23)n1 (configuration not stated) + Cc1ccccc1N=Nc1ccc(NC(=O)c2ccnn2C)c(C)c1 : 70.3
COc1cc(C2c3cc4c(cc3C(OC3OC5COC(C)OC5C(O)C3O)C3COC(=O)C23)OCO4)cc(OC)c1O (configuration not stated) + Cc1cncc(-c2nc(NCCc3c[nH]c4ccccc34)c3ncn(C(C)C)c3n2)c1 : 15.8
COc1cccc2c1C(=O)c1c(O)c3c(c(O)c1C2=O)CC(O)(C(=O)CO)CC3OC1CC(N)C(O)C(C)O1 (configuration not stated) + Cc1ccccc1N=Nc1ccc(NC(=O)c2ccnn2C)c(C)c1 : 1.41
O=C(C=Cc1cccc(S(=O)(=O)Nc2ccccc2)c1)NO + CC(CO)NC(=O)c1cc(-c2ccc(Cl)cc2)nn(-c2cnn(C)c2)c1=O : 73.6

For each of the items listed, what is its viability, T/C?
1. COc1ccc([C@@H](O)c2cc(-c3ncnc4cc(N5CCOCC5)ccc34)c(F)cc2Cl)nn1 + Cc1ccccc1N=Nc1ccc(NC(=O)c2ccnn2C)c(C)c1
2. CC(C)c1c(-c2ccccc2)nc2c(C#N)c[nH]n2c1=O + Cc1cncc(-c2nc(NCCc3c[nH]c4ccccc34)c3ncn(C(C)C)c3n2)c1

**A:**
1: 89.3; 2: 67.2

---

Assignment: determine reported viability, T/C for the given compounds.
System: 786-0 complex spheroids with HUVEC/MSC, growth % test/control
assay_remarks: Anticancer human tumor 786-0 cell line growth inhibition [AhR];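 further: compound exposure lasted seven days before the read-out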
cond: second compound 1 µM; first compound 0.000949 µM; active compounds read low
Answers are plain numbers, in %.

Recorded viability, T/C, per entry:
CCc1c2c(nc3ccc(O)cc13)-c1cc3c(c(=O)n1C2)COC(=O)[C@]3(O)CC + Cc1ccccc1N=Nc1ccc(NC(=O)c2ccnn2C)c(C)c1 : 101
CCc1c2c(nc3ccc(O)cc13)-c1cc3c(c(=O)n1C2)COC(=O)[C@]3(O)CC + CC(CO)NC(=O)c1cc(-c2ccc(Cl)cc2)nn(-c2cnn(C)c2)c1=O : 96.8
Nc1ncn(C2CC(O)C(CO)S2)c(=O)n1 (centres undefined) + CC(CO)NC(=O)c1cc(-c2ccc(Cl)cc2)nn(-c2cnn(C)c2)c1=O : 104
Nc1ncn(C2CC(O)C(CO)S2)c(=O)n1 (centres undefined) + Cc1ccccc1N=Nc1ccc(NC(=O)c2ccnn2C)c(C)c1 : 99.6
CC(C)CC(NC(=O)C(Cc1ccccc1)NC(=O)c1cnccn1)B(O)O (centres undefined) + Cc1cncc(-c2nc(NCCc3c[nH]c4ccccc34)c3ncn(C(C)C)c3n2)c1 : 102

Please report viability, T/C for every entry that follows.
1. Nc1ncn(C2CC(O)C(CO)S2)c(=O)n1 (centres undefined) + Cc1cncc(-c2nc(NCCc3c[nH]c4ccccc34)c3ncn(C(C)C)c3n2)c1
2. CC(C)CC(NC(=O)C(Cc1ccccc1)NC(=O)c1cnccn1)B(O)O (centres undefined) + Cc1ccccc1N=Nc1ccc(NC(=O)c2ccnn2C)c(C)c1

**A:**
1: 101; 2: 106

The following compounds each have a reported value; give each one's viability, T/C.
1. CCc1c2c(nc3ccc(O)cc13)-c1cc3c(c(=O)n1C2)COC(=O)[C@]3(O)CC + Cc1cncc(-c2nc(NCCc3c[nH]c4ccccc34)c3ncn(C(C)C)c3n2)c1
2. CC(C)CC(NC(=O)C(Cc1ccccc1)NC(=O)c1cnccn1)B(O)O (centres undefined) + CC(CO)NC(=O)c1cc(-c2ccc(Cl)cc2)nn(-c2cnn(C)c2)c1=O

**A:**
1. 99.5
2. 112

These entries and their values trace back to PubChem BioAssay AID1919003.
